# Test system: OVCAR-5 ovarian
# test: NCI tumour cell line growth inhibition, 48 h; in the data active = GI50 below about 0.43 µM; inactive = the rest
Hello, when you answer, please use one of the following outcomes: active, inactive

• C[n+]1c2ccccc2c(Nc2ccc(NS(=O)(=O)CCCCN=C(N)N)cc2)c2ccc(N)cc21 = inactive
• COc1ccc(SC2c3ccc(C)cc3Oc3nc(N)c(C#N)c(N)c32)cc1 (stereo not given) = inactive
• Cc1cc([N+](=O)[O-])ccc1NS(=O)(=O)c1cc(Cl)ccc1Cl = inactive

-- ask // param item: Oc1ccc2ccccc2c1C1NN=C(c2ccccc2)S1 (stereo not given) ; yields the recorded call
-- reply inactive

-- ask // param item: O=C(Nc1ccc2[nH]c(C(=O)N3CC(CCl)c4c3cc([N+](=O)[O-])c3ccccc43)cc2c1)c1cc2ccccc2o1 (stereo not given) ; yields the recorded call
-- reply inactive

-- ask // param item: N#Cc1ccc(C2C3=C(CCCC3=O)OC3=C2C(=O)c2ccccc2C3=O)cc1 (stereo not given) ; yields the recorded call
-- reply inactive

-- ask // param item: COc1cc(-c2csc(NC(=O)Nc3cc(C(F)(F)F)cc(C(F)(F)F)c3)n2)cc(OC)c1OC ; yields the recorded call
-- reply inactive

-- ask // param item: COc1ccc([I+]c2ccccc2)cc1 ; yields the recorded call
-- reply inactive

-- ask // param item: CCOc1ccc2nc(-c3cccc(OCC(=O)NC(C)C)c3)nc(Nc3ccc(-c4cn[nH]c4)cc3)c2c1 ; yields the recorded call
-- reply inactive

-- ask // param item: CCCOC(=O)N[C@H]1CCc2cc(OC)c(OC)c(OC)c2-c2ccc(SC)c(=O)cc21 ; yields the recorded call
-- reply active

* * *

# System: OVCAR-4 ovarian
# test: NCI tumour cell line growth inhibition, 48 h
recordedMetric: TGI

• CCOC(=O)Cn1nnc2cc(Nc3nc4ccccc4nc3C(=O)OCC)ccc21 = > 100 µM
• COc1ccc(SC2c3ccc(C)cc3Oc3nc(N)c(C#N)c(N)c32)cc1 (centres undefined) = 3.15 µM
• O=C(CCc1ccc(O)c(O)c1)NCCc1ccc(O)c(O)c1 = 33.7 µM

Look at each molecule and report its TGI.
1. COc1ccc2nc3cc([N+](=O)[O-])ccc3c(NCCCN(CCO)CCO)c2c1
2. O=C(O)c1ccc2c3c(ncnc13)-c1ccccc1C2=O
3. C[C@]1(C(=O)O)N[C@H](C(=O)O)CS1

-- reply
1. 11.4 µM
2. > 100 µM
3. > 1000 µM

Look at each molecule and report its TGI.
1. C[C@@H](NC(=O)[C@@H](CC(=O)N1CCC(N2CCCCC2)CC1)N1C(=O)[C@@H](N2C(=O)OC[C@@H]2c2ccccc2)[C@H]1/C=C/c1cccc(Cl)c1)c1ccccc1
2. COc1ccc2oc(=Nc3ccc(F)cc3)c(C(N)=O)cc2c1
3. CC1(C)N=C(N)N=C(N)N1c1ccc(CCc2ccc(Cl)cc2S(=O)(=O)F)c(Cl)c1
4. COc1ccc(/C=N\NC(=O)Nc2cccc3ccccc23)cc1
5. O=C1C(Cl)=C(Nc2cccc(O)c2)C(=O)N1Cc1ccc(Cl)cc1
6. c1ccc(Nn2c(CCCCCCCCc3nnc(COc4ccccc4)n3Nc3ccccc3)nnc2COc2ccccc2)cc1
7. Fc1cccc(CSc2ncnc3c2ncn3C2CCCS2)c1 (centres undefined)

-- reply
1. 24.8 µM
2. > 100 µM
3. 84.5 µM
4. 43.2 µM
5. > 100 µM
6. > 300 µM
7. 83.1 µM

Look at each molecule and report its TGI.
1. CCOc1cc2c(cc1O)CC[C@@H]1[C@@H]2CC[C@]2(C)C(OS(=O)OC3CC[C@@H]4[C@H]5CCc6cc(O)c(OCC)cc6[C@@H]5CC[C@@]34C)CC[C@@H]12 (some centres undefined)
2. CN(C(=O)C12C3(C(=O)C(C)(C)C)C4C5(C#N)C3C1(C(=O)C(C)(C)C)C5C42C(=O)C(C)(C)C)C(C)(C)C (centres undefined)
3. Cc1cc2c(c(C(=O)NCCC(=O)N[C@@H](C)C(=O)OCc3ccccc3)c1)Oc1c(cc(C)cc1C(=O)NCCC(=O)N[C@@H](C)C(=O)OCc1ccccc1)S2

-- reply
["> 64.5 µM", "> 50 µM", "> 100 µM"]

* * *

Task for the reader: assign each of the following compounds its reported TGI.
# System: OVCAR-4 ovarian
# test: NCI tumour cell line growth inhibition, 48 h
One number for each entry, in µM.

- COc1ccc(S(=O)(=O)Nc2ccc(-c3csc(N4C(=O)/C(=C/c5ccccc5)N=C4c4ccccc4)n3)cc2)cc1Cl: 99.4

Now take the following compound into account.
-- ask Look up and report measured TGI for this entry: COc1ccc(C2=Nc3c/c(=C\c4c(O)[nH]c5ccc(Cl)cc45)ccc3=N2)cc1
-- reply 3.34

* * *

# Tested on: NCI-H23 lung
# test: NCI tumour cell line growth inhibition, 48 h
Task for the reader: assign each of the following compounds its reported TGI.

* CCOC(=O)[C@H]1CSC[C@@H](C(=O)OC)N1 | > 100 µM

Look at each compound and report its TGI.
1. COc1ccc(NCc2cnc3nc(N)nc(N)c3c2C)cc1
2. NC(=O)C[C@H](NC(=O)C1(NC(=O)[C@H](Cc2ccc(CP(=O)(O)O)cc2)NC(=O)C(=O)O)CCCCC1)C(=O)NCCCc1cccc2ccccc12

-- reply
> 100 µM
> 10 µM

Look at each compound and report its TGI.
1. Cc1ccc(C(=O)/C(=C\c2ccc([N+](=O)[O-])cc2)S(=O)Cc2ccc(F)cc2)cc1 (stereo not given)
2. COc1ccc([I+]c2ccccc2)cc1
3. CSc1n(Cc2ccc3ccccc3c2)c(C)c[n+]1Cc1ccc2ccccc2c1
4. Fc1cccc(CSc2ncnc3c2ncn3C2CCCS2)c1 (stereo not given)
5. CC(C)(c1ccc(Oc2ccc(C#N)c(C#N)c2)cc1)c1ccc(Oc2ccc(C#N)c(C#N)c2)cc1
6. Cc1cc(C)c2c(=N)c3ccccc3n(CCCCCCn3c4ccccc4c(=N)c4c(C)cc(C)nc43)c2n1
7. CCO/C=C1\N=C(C(Cl)c2ccccc2)OC1=O (stereo not given)

-- reply
["3.36 µM", "> 100 µM", "1.64 µM", "62.1 µM", "> 100 µM", "2.44 µM", "> 100 µM"]

* * *

# Tested on: MALME-3M melanoma
# test: NCI tumour cell line growth inhibition, 48 h; in the data active means GI50 below about 0.43 µM; inactive means the rest
Hello, when you answer, please use one of the following outcomes: 1 (active), -1 (inactive)

As a guide, the following entries are already answered.
- COc1ccc([I+]c2ccccc2)cc1: -1
- CC(C)[NH-].CC(C)[NH-].O.O.[Cl][Pt+2][Cl]: -1
- COc1cc2c(cc1OC)-c1ccc3cc4c(cc3c1N(CCN(C)C)C2)OCO4: -1
- C[n+]1c2ccccc2c(Nc2ccc(NS(=O)(=O)CCCCN=C(N)N)cc2)c2ccc(N)cc21: -1

-- ask // param item: C=C1C(=O)O[C@@H]2OC3(C)CCC4C(C)CCC1C42OO3 (stereo not given in full) ; yields the recorded call
-- reply -1

-- ask // param item: Cc1cc([N+](=O)[O-])ccc1NS(=O)(=O)c1cc(Cl)ccc1Cl ; yields the recorded call
-- reply -1

-- ask // param item: CN[C@@H]1C[C@H]2O[C@@](C)([C@@H]1OC)n1c3ccccc3c3c4c(c5c6ccccc6n2c5c31)C(=O)N[C@H]4O ; yields the recorded call
-- reply 1

-- ask // param item: COc1ccc(SC2c3ccc(C)cc3Oc3nc(N)c(C#N)c(N)c32)cc1 (stereo not given) ; yields the recorded call
-- reply -1

-- ask // param item: O=c1oc(-c2ccccc2)cc2cccc(O)c12 ; yields the recorded call
-- reply -1

-- ask // param item: O=C(/C=C/c1cccc([N+](=O)[O-])c1)c1ccc(O)c(CN2CCN(c3cc4c(cc3F)c(=O)c(C(=O)O)cn4C3CC3)CC2)c1 ; yields the recorded call
-- reply -1

* * *

Task for the reader: assign each of the following compounds its reported TGI.
# System: LOX IMVI melanoma
# test: NCI tumour cell line growth inhibition, 48 h

Below: 3 compounds and their reported TGI.
* Fc1cccc(CSc2ncnc3c2ncn3C2CCCS2)c1 (configuration not stated) | 34.9 µM
* NC(CC(=O)Nc1ccc(Cl)cc1)=Nc1ccccc1 | > 100 µM
* O=C(NCCCCCCNC(=O)n1cc(F)c(=O)[nH]c1=O)NCCCOCCOCCOCCOCCOCCOCCOCCOCCOCCOCCOCCOCCOCCOCCOCCOCCOCCOCCOCCOCCOCCCNC(=O)C(O)C(O)C(OC1OC(CO)C(O)C(O)C1O)C(O)CO (configuration not stated) | > 100 µM

Look at each compound and report its TGI.
1. CCCCCCCCC(O)C#CC(N)=O (configuration not stated)
2. NC(=O)CCC(NC(=O)c1cccc2c(=O)c3ccccc3[nH]c12)C(=O)O (configuration not stated)

-- reply
["24 µM", "> 100 µM"]

Look at each compound and report its TGI.
1. NC(=O)c1ncn2c(=O)n(CCl)nnc12
2. N#CCOc1cccc(C2(N3CC=CCC3)CCCCC2)c1

-- reply
1. > 100 µM
2. > 100 µM
